TARGET_SYSTEM: SARS-CoV-2 3CL-protease (Severe acute respiratory syndrome coronavirus 2 (2019-nCoV) (SARS-CoV-2), UniProt P0DTD1)
PROTOCOL_NOTES: SARS-CoV-2 3C-like (3CL) protease fluorescence assay (FRET)
Assay type: biochemical
TEST_CONDITIONS: recombinant SARS-CoV-2 3CL-protease 10 nM, 30 min preincubation at RT, TAMRA-[…]-Dabcyl-OH substrate, run in duplicate
pIC50: −log10 of the molar value.
MEASURED_PARAMETER: pIC50

Previously resolved entries follow.
In [3]: df
Out[3]:
                                   molecule   measurement
0  CC(C)C[C@H](C(=O)N1C[C@]2(C[C@H]1C#N)C(=O)Nc1ccccc12)n1cccc(-c2ccncc2)c1=O        < 6.00
1  CC(C)C[C@@H](C(=O)N1C[C@]2(C[C@H]1C#N)C(=O)Nc1ccccc12)N1CCc2cc(F)ccc2C1=O        > 7.00
2  CC(C)(F)C[C@@H](C(=O)N1C[C@]2(C[C@H]1C#N)C(=O)Nc1ccccc12)N1Cc2c(Cl)cccc2C1=O        > 7.00
3  CC(C)(C)C[C@@H](C(=O)N1C[C@]2(C[C@H]1C#N)C(=O)Nc1ccccc12)N1C(=O)c2ccc(F)cc2C1(C)C  6.00 to 7.00
4  CC(C)C[C@@H](C(=O)N1C[C@]2(C[C@H]1C#N)C(=O)Nc1ccccc12)N1CCc2cccc(F)c2C1=O  6.00 to 7.00
5  CC(C)C[C@@H](C(=O)N1C[C@]2(C[C@H]1C#N)C(=O)Nc1ccccc12)N1C(=O)c2ccc(F)cc2C1(C)C        < 6.00
6  CC(C)(F)C[C@@H](C(=O)N1C[C@]2(C[C@H]1C#N)C(=O)Nc1ccccc12)N1Cc2ncc(Cl)cc2C1=O        > 7.00
7  CC(C)C[C@@H](C(=O)N1C[C@]2(C[C@H]1C#N)C(=O)Nc1ccccc12)N1Cc2c(cccc2C(F)(F)F)C1=O        > 7.00

INPUT: Returns the measured pIC50 for the input compound. Input: CC(C)C[C@@H](C(=O)N1C[C@]2(C[C@H]1C#N)C(=O)Nc1ccccc12)N1C(=O)c2ccccc2[C@@H]1C
OUTPUT: > 7.00

INPUT: Returns the measured pIC50 for the input compound. Input: COc1cccc2c1CN([C@@H](CC(C)(C)C)C(=O)N1C[C@]3(C[C@H]1C#N)C(=O)Nc1ccccc13)C2=O
OUTPUT: > 7.00

INPUT: Returns the measured pIC50 for the input compound. Input: COc1ccc2c(c1)C(=O)N([C@@H](CC(C)(C)C)C(=O)N1C[C@]3(C[C@H]1C#N)C(=O)Nc1ccccc13)C2
OUTPUT: > 7.00

INPUT: Returns the measured pIC50 for the input compound. Input: CC(C)C[C@@H](C(=O)N1C[C@]2(C[C@H]1C#N)C(=O)Nc1ccccc12)N1C(=O)c2ccccc2[C@H]1C
OUTPUT: > 7.00

INPUT: Returns the measured pIC50 for the input compound. Input: CC(C)(C)C[C@@H](C(=O)N1C[C@]2(C[C@H]1C#N)C(=O)Nc1ccccc12)N1CCc2cccc(F)c2C1=O
OUTPUT: 6.00 to 7.00
